Target: Prosaposin (Homo sapiens, UniProt P07602)
Sequence (P07602 whole entry): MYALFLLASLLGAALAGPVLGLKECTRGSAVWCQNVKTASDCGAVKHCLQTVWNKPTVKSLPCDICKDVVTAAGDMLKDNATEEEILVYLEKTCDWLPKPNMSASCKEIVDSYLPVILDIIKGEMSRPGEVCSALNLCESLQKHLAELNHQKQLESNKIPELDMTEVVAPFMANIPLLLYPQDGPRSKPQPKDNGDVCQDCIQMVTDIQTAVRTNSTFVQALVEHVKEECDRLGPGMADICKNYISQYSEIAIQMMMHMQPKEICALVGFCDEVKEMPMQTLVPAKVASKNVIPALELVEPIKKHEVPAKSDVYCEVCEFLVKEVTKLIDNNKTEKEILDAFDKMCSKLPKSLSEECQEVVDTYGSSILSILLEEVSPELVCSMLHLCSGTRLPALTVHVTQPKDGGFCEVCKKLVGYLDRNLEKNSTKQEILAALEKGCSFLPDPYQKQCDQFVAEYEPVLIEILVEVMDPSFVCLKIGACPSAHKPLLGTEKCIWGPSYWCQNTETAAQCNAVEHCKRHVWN
Assay: Binding affinity to human saposin D (1 to 81 residues) expressed in Escherichia coli at 25 degree C by electronic absorption spectroscopy
pKd: −log10 of the molar value.

{"MOLECULE": "CC1=C(/C=C/C(C)=C/C=C/C(C)=C/C(=O)Nc2ccc(O)cc2)C(C)(C)CCC1 [FENRETINIDE]", "TESTED ON": "Prosaposin (Homo sapiens, UniProt P07602)", "pKd": 5.16}
